// provenance: PubChem BioAssay (NCI)

- System: COLO 205 colon
- ASSAY REMARKS: NCI tumour cell line growth inhibition, 48 h; in the data active means GI50 below about 0.43 µM; inactive means the rest
Lab note: assign the record to one of active, inactive

Use these answered entries as a reference point.
COc1ccc(C2=NN(C=O)C(c3cccc(Nc4ccnc5cc(Cl)ccc45)c3)C2)cc1 (stereo not given)	inactive
CNCCn1c(=O)c2cc(OC)c(OC)cc2c2ccc3cc4c(cc3c21)OCO4	active
Cc1cc2c(cc1C)N(C(=O)CCl)CCN2C(=O)CCl	inactive
COc1cc(/C=C2\C(=O)Nc3ccc(N(C)C)cc32)cc(OC)c1OC	inactive

With those in mind, consider the next compound.
[Q] Short answer needed: outcome of this test for CN(C)CCCNC(=O)c1ccc2c(c1)oc1cc3ccccc3c(=O)n12 ?
[A] inactive
